Listing of entries alongside the reported IC50.
system under test: His tagged full-length PTPN1 protein (Homo sapiens)
Sequence (P18031 with tags, fused parts or gaps): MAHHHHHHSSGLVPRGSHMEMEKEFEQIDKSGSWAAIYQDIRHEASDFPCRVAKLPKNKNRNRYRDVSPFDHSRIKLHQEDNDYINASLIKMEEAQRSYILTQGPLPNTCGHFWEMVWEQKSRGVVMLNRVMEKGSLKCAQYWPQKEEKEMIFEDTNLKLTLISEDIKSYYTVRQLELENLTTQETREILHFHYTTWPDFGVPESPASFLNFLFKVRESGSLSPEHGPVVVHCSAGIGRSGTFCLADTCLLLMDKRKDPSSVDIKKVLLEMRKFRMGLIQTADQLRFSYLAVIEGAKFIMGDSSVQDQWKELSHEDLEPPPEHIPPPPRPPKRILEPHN

Record excerpt, results attached:
1) O=C1CN(c2c(O)cc3c(c2F)CN(CCCC2CCNCC2)CC3)S(=O)(=O)N1 | 0.01 to 0.1 µM
2) CC1(CN[C@@H]2CCc3cc(O)c(N4CC(=O)NS4(=O)=O)c(F)c3C2)COC1 | 0.01 to 0.1 µM
3) O=C1CN(c2c(O)cc3c(c2F)CCCC3)S(=O)(=O)N1 | 0.01 to 0.1 µM

INPUT: Under His tagged full-length PTPN1 protein (Homo sapiens): IC50 value of O=C1CN(c2c(O)cc3c(c2F)CCCO3)S(=O)(=O)N1 ?
OUTPUT: 0.01 to 0.1 µM

INPUT: I'm curious: which IC50 was measured for O=C1CN(c2c(O)cc3c(c2F)C[C@@H]([C@@H]2CCN(S(=O)(=O)C4CC4)C2)CC3)S(=O)(=O)N1 (single isomer, unassigned) tested on His tagged full-length PTPN1 protein (Homo sapiens)?
OUTPUT: 0.001 to 0.01 µM

INPUT: Entry COCC(C)(C)CNC(=O)N1CCc2cc(O)c(N3CC(=O)NS3(=O)=O)c(F)c2C1 , system His tagged full-length PTPN1 protein (Homo sapiens): what IC50 was measured?
OUTPUT: 0.01 to 0.1 µM

INPUT: What measured IC50 is associated with CC(C)CNCC1CCc2cc(O)c(N3CC(=O)NS3(=O)=O)c(F)c2C1 (stereo not drawn) on His tagged full-length PTPN1 protein (Homo sapiens)?
OUTPUT: 0.01 to 0.1 µM

INPUT: Missing value: IC50, His tagged full-length PTPN1 protein (Homo sapiens), entry COCCCN1CCc2cc(O)c(N3CC(=O)NS3(=O)=O)c(F)c2C1 . Fill in?
OUTPUT: > 0.1 µM

The reported numbers originate from patent US20250122160A1.
